Sourced from patent US12590062B2

# Assay target: PD-1/PD-L1 interaction (Homo sapiens)
# Construct: expressed in transfected cells; host or cells: CHO cells (aAPC-PD-L1) co-cultured with Jurkat cells overexpressing PD-1 and an NFAT-luciferase reporter
# Sequence (Q9NZQ7 19-290): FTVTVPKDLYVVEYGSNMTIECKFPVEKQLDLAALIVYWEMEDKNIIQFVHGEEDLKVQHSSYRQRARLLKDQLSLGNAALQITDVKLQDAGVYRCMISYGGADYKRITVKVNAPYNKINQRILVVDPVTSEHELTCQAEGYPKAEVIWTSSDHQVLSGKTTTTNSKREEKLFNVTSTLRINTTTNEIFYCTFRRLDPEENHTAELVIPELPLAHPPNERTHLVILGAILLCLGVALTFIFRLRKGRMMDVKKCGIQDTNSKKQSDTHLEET
# Test protocol: PD-1/PD-L1 NFAT reporter co-culture assay
# Type: cell-based
# Study conditions: Jurkat PD-1 NFAT-luciferase cells co-cultured with aAPC-PD-L1 CHO cells, 6 hrs at 37° C.; read-out: EC50 NFAT Luciferase
Readout name: EC50 (nM)

compound="CC(CO)(NCc1cc(Cl)c(O[C@H]2CCc3c(-c4cccc5c4CC[C@@H]5Oc4nc(OCc5cncc(S(C)(=O)=O)c5)c(CNC(C)(CO)C(=O)O)cc4Cl)cccc32)nc1OCc1cncc(S(C)(=O)=O)c1)C(=O)O (stereo partly drawn) [Example 298]" reported_value=21
compound="COc1cc(-c2cccc(-c3cccc(COc4nc(OC)c(CNC[C@@H]5CCC(=O)N5)cc4Br)c3Cl)c2Cl)ccc1CNC[C@@H]1CCC(=O)N1 [Example 542]" reported_value=197

A. Cc1c(COc2cc(OCc3cncc(C#N)c3)c(CNCCCO)cc2Cl)cccc1-c1cccc(COc2cc(OCc3cncc(C#N)c3)c(CNCCCO)cc2Cl)c1C [Example 73]
B. CS(=O)(=O)c1cncc(COc2nc(O[C@H]3CCc4c(-c5cccc6c5CC[C@@H]6Oc5nc(OCc6cncc(S(C)(=O)=O)c6)c(CNC[C@@H](O)CC(=O)O)cc5Cl)cccc43)c(Cl)cc2CNC[C@@H](O)CC(=O)O)c1 [Example 694]
Consider A and B . Which of these has its EC50 at a higher number? # respond with the chosen item's label A
